The measured values listed here are drawn from paper PMC10333884.

ASSAY TARGET: MAP1LC3A (human)
METHOD: FP
Non-standard residues stand in square brackets, D forms with d. No end group written: not given here. pS = N[C@@H](COP(=O)(O)O)C(=O)O
Hi there, I'd appreciate the recorded pIC50 for every entry that follows.
Note on units: pIC50 is unitless, being -log10 of a concentration expressed in mol/L.

# input Consider the binder KKQLKRF[pS]TEEFVLL [ATG4C_(444–458), phosphorylated (pS)] and give its measured pIC50.
# output 5.26

# input # iterate: KKQLKRFSTEEFVLL [ATG4C_(444–458), wild‐type]
# output 4.77

# input Okay, and KKQLKRFETEEFVLL [ATG4C_(444–458), phosphomimetic (E)] ?
# output 4.96
